Assay: inhibitors of E-selectin induction by TNFa, primary screen, imaging, HUVEC, immunofluorescence, MLSMR starter and 10KST1 sets (AID 487);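 also: 100% = median nuclei count of all wells on the same plate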
Conditions: HUVEC TNFalpha-induced E-selectin immunofluorescence imaging, at 2 µM; measured here: cell number, toxicity
valueKind: nuclei count (%)

# compound, valueKind, reading
measured = [
    ("COc1ccccc1N1CCN(CCOc2c(OC)cccc2OC)CC1", "nuclei count", 116),
    ("COCc1[nH]nc2c1C(c1ccccc1OC)C(C#N)=C(N)O2 (stereo not drawn)", "nuclei count", 101),
    ("Cc1[nH]c(=O)[nH]c(=O)c1S(=O)(=O)N1CCCC1", "nuclei count", 116),
    ("COc1ccc(OC)c(C2/C(=C(/O)c3cnn(-c4ccccc4)c3C)C(=O)C(=O)N2CCN(C)C)c1 (stereo not drawn)", "nuclei count", 86.9),
    ("CCc1cn([C@H]2C[C@H](O)[C@@H](CO)O2)c(=O)[nH]c1=O", "nuclei count", 120),
    ("CCN(CC)C(=O)c1sc2nc(-c3cccs3)cc(-c3cccs3)c2c1N", "nuclei count", 121),
    ("Cc1cc(-c2cc(-c3ccc(Cl)cc3)nc(N)c2C#N)co1", "nuclei count", 173),
    ("COCCCNC(=O)C(C#N)c1nc2ccccc2nc1N1CCN(Cc2ccccc2)CC1 (stereo not drawn)", "nuclei count", 156),
    ("CN1CCc2nc(SCC(=O)Nc3ccc(Cl)cc3)c(C#N)cc2C1", "nuclei count", 162),
    ("Cc1ccc(N2C(=O)C3ON(c4ccccc4)C(c4ccncc4)C3C2=O)c(C)c1 (stereo not drawn)", "nuclei count", 164),
    ("Fc1ccc2[nH]c3c(N4CCN(C5CCCCC5)CC4)ncnc3c2c1", "nuclei count", 153),
    ("COc1cccc(C2/C(=C(\\O)c3ccc4c(c3)OCCO4)C(=O)C(=O)N2CCN(C)C)c1 (stereo not drawn)", "nuclei count", 138),
    ("CCOc1ccc2nc(SCC(=O)Nc3ncccn3)[nH]c2c1", "nuclei count", 138),
    ("COc1cc(C2CC(C(F)(F)F)n3ncc(C(=O)O)c3N2)cc(OC)c1OC (stereo not drawn)", "nuclei count", 119),
    ("O=C1c2ccccc2C(=O)C1c1ccc2ccccc2n1", "nuclei count", 109),
    ("O=C(O)c1ccccc1S", "nuclei count", 126),
    ("N#C/C(=C\\c1ccc(O)c(O)c1)C(=O)NCCCc1ccccc1", "nuclei count", 131),
    ("Cc1cc(=O)oc(C)c1C(=O)N1CCN(Cc2ccc3c(c2)OCO3)CC1", "nuclei count", 158),
    ("CN(C)c1nc2n(c(=O)n1)C(C#N)CS2 (stereo not drawn)", "nuclei count", 105),
    ("Cn1ccnc1SCCC#N", "nuclei count", 116),
    ("CCCOc1ccc(/C(O)=C2/C(=O)C(=O)N(CCCN3CCOCC3)C2c2ccncc2)cc1 (stereo not drawn)", "nuclei count", 145),
    ("Cc1cccc(Nc2ncnc3ccccc23)c1", "nuclei count", 123),
    ("Nc1nnc(CSCc2ccc(F)cc2)s1", "nuclei count", 111),
]

###

Assay: DUSP6 inhibitors restoring Erk phosphorylation by chemical complementation, primary imaging in DUSP6-transfected HeLa (AID 609)
Details: HeLa MKP-3 transfected, phospho-Erk imaging KS statistic; measured here: nuclear c-Myc green intensity z-score; at 10 µM; cells stimulated with TPA for 15 min
Okay, here is how we bin by z-score: Low: < -0.4; Mid: ≥ -0.4 and < 0.1; High: ≥ 0.1

# compound, cat
rows = [
    ("COc1ccc(CCNC2CC(C)N(C)CC2C)cc1OC (stereo not given)", "Mid"),
    ("CCC(=O)Nc1cc(-c2nn(C)c(=O)c3ccccc23)ccc1N1CCCCC1", "Low"),
    ("N/C(CCCN1CCCCC1)=N/O", "Mid"),
    ("CCOc1ccc(CC2CC(=O)NC2=O)cc1 (stereo not given)", "Mid"),
    ("COC(=O)CN(c1nc(C)c(Cl)c(OC)n1)S(=O)(=O)c1ccc(C)cc1", "High"),
    ("N#CC1=C(N)N(c2ccccc2)C(c2ccccc2)C1(C#N)C#N (stereo not given)", "Low"),
    ("CCCN(CCC)C(=O)C(CCC(=O)O)NC(=O)c1ccccc1 (stereo not given)", "High"),
    ("CC[N+](C)(C)Cc1ccccc1Br", "Mid"),
    ("Cc1ccc(C(C)C)c(OCCNc2nc3c(c(=O)n(C)c(=O)n3C)n2C)c1", "Mid"),
    ("NC(=O)OCC(COC(N)=O)c1ccccc1", "Low"),
    ("CC(O)Cn1ccccc1=N (stereo not given)", "Mid"),
    ("CN1CCN(CCCN2c3ccccc3Sc3ccc(Cl)cc32)CC1", "High"),
    ("Cn1c(=O)n(C)c2cc(C(=O)c3ccccc3)ccc21", "Mid"),
    ("O=C(NO)c1ccccc1O", "Mid"),
    ("CSc1nc(NC(C)=O)nc(C)c1Cl", "High"),
    ("CCOC(=O)C1=C(C(C)=O)C(c2cccnc2)C(C#N)=C(N)O1 (stereo not given)", "Low"),
    ("COc1ccc(-c2nn3c(COc4ccccc4)nnc3s2)cc1OC", "Mid"),
    ("O=C(O)CC(C(=O)N(c1ccccc1)c1ccccc1)N1CCOCC1 (stereo not given)", "High"),
    ("Cc1ccc(N2C(=O)[C@@H]3[C@H](C2=O)C2CCCN2[C@@H]3C(=O)c2ccccc2)cc1 (stereo not given in full)", "Low"),
    ("OC1CN=C2Sc3ccccc3N2C1 (stereo not given)", "High"),
    ("CCOC(=O)CC(=O)CSc1nc2c(cc1C#N)CCCCC2", "Low"),
    ("Nc1nc2ccc(OC(F)(F)F)cc2s1", "Low"),
    ("Cc1cc(/C(O)=C2\\C(=O)C(=O)N(CCN(C)C)C2c2ccncc2)ccc1OCc1ccccc1 (stereo not given)", "High"),
    ("COc1ccccc1N1CCN(C(=O)c2c(C)cc(=O)oc2C)CC1", "High"),
]

###

Experiment: inhibitors of Sendai virus-induced IRF3 signaling, primary screen, TLR/RLR signaling modifier project, cell-based, Sendai virus stimulus, luciferase, 10K MLSCN set (AID 602276);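 also: firefly luciferase from ISG56 promoter only with Renilla not read in this screen; 0% = Sendai virus plus DMSO and 100% = medium plus DMSO without virus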
Details: HEK293 RL24 IRF3 luciferase reporter, at 10 µM, stronger effect = higher value
Catalogue of inhibition readings, one per entry.
valueKind: inhibition (%)

# molecule, unitDescriptor, reading
measured = [
    ("Nc1ccc2[nH]ncc2c1", "%", 11.4),
    ("CCN(CC)C(=O)c1sc2nc(-c3cccs3)cc(-c3cccs3)c2c1N", "%", 20.8),
    ("Cc1ccc(C2C3CN(C(C)C)CC=C3C(C#N)=C(N)C2(C#N)C#N)cc1 (stereo unspecified)", "%", 22.9),
    ("CCN(CCCc1ccccc1)CCCc1ccccc1", "%", 16.6),
    ("CN1CCC(=C2c3ccccc3CC(=O)c3sccc32)CC1", "%", -1.65),
    ("COC(=O)Nc1nc2ccc(Sc3ccccc3)cc2[nH]1", "%", 43),
]

###

Catalogue of fluorescence slope readings, one per entry.
Biological target: Voltage-gated potassium channel subunit beta-2 (Rattus norvegicus) (UniProt P62483)
Sequence (P62483 whole entry, looked up): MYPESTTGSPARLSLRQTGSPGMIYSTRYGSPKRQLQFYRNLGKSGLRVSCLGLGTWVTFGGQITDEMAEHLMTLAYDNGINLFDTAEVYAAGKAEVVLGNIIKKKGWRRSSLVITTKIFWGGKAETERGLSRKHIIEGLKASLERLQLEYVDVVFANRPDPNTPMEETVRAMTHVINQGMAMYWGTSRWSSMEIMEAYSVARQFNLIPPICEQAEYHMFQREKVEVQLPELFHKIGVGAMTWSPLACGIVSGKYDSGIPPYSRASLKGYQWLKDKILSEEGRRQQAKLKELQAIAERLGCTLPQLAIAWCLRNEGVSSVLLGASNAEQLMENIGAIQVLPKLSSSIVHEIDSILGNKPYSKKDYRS
Experiment: KvBeta enzyme negative modulators, primary screen, biochemical, NADPH fluorescence (AID 622);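 also: slope of raw intensity against log time taken from 70 to 1610 s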
Conditions: recombinant KvBeta, 4-cyanobenzaldehyde reduction, at 10 µM, stronger effect = higher value

# molecule, fluorescence slope
rows = [
    ("COc1ccc(/C=N/n2cncn2)cc1CSc1ccccn1", -0.32),
    ("COc1ccc(N(CN2C(=O)C3C4C=CC(C4)C3C2=O)C(=O)c2ccco2)cc1 (stereo not drawn)", -0.58),
    ("Cc1ccc(S(=O)(=O)c2cc3c(=O)n4ccccc4nc3n(C)c2=N)cc1", -0.453),
    ("COC(=O)C1=C(C)NC(C)=C(C(=O)OC)C1c1ccccc1[N+](=O)[O-]", -0.461),
    ("O=C(c1ccco1)N1CCN(CCOCCOc2cccc3ccccc23)CC1", -0.504),
    ("COc1cc([C@@H]2c3cc4c(cc3[C@H](O)[C@H]3COC(=O)[C@H]23)OCO4)cc(OC)c1OC", -0.472),
    ("CCOC(=O)CCC(=O)O[C@H]1[C@H](O[C@@H]2[C@@H](C)[C@H](O[C@H]3C[C@@](C)(OC)[C@@H](O)[C@H](C)O3)[C@@H](C)C(=O)O[C@H](CC)[C@@](C)(O)[C@H](O)[C@@H](C)C(=O)[C@H](C)C[C@@]2(C)O)O[C@H](C)C[C@@H]1N(C)C", -0.495),
    ("C[C@]12CC[C@@H]3c4ccc(OC(=O)c5ccccc5)cc4CC[C@H]3[C@@H]1CC[C@@H]2O", -0.467),
]

Entry source: PubChem BioAssay
